Each entry below lists one item and its recorded pKd value.
Test: Binding affinity to recombinant bacteria NDM-1 (I31 to K268 residues)expressed in Escherichia coli BL21 (DE3) cells by SPR assay
pKd: −log10 of the molar value.

Please review the following examples before continuing.
COMPOUND	REPORTED_MEASUREMENT
CCC/C(=N\Nc1cccc2ccccc12)C(=O)O	< 3.00
C/C(=N\Nc1cccc2cccnc12)C(=O)O.Cl	3.54 to 3.66
CC(C)(C)/C(=N\Nc1cccnc1)C(=O)O.Cl	< 3.00
O=C([O-])CN(CCN(CC(=O)[O-])CC(=O)O)CC(=O)O.[Na+].[Na+] [EDETATE DISODIUM ANHYDROUS]	< 3.00
CC/C(=N\Nc1cccnc1)C(=O)O.Cl	< 3.00

Request: Recall and state the measured pKd for C[C@H](CS)C(=O)N1CCC[C@H]1C(=O)O .
Response: 4.85 to 4.92

Request: Recall and state the measured pKd for C/C(=N\Nc1cccnc1)C(=O)O.Cl .
Response: < 3.00

Reference source for all entries: ChEMBL document CHEMBL4622835
